Assay: self-splicing fitness, log relative to wild type (ln ratio); higher = more splicing; Tetrahymena group I intron in knt gene, E. coli kanamycin selection, DiMSum; sequences stand for … in CUCUCU…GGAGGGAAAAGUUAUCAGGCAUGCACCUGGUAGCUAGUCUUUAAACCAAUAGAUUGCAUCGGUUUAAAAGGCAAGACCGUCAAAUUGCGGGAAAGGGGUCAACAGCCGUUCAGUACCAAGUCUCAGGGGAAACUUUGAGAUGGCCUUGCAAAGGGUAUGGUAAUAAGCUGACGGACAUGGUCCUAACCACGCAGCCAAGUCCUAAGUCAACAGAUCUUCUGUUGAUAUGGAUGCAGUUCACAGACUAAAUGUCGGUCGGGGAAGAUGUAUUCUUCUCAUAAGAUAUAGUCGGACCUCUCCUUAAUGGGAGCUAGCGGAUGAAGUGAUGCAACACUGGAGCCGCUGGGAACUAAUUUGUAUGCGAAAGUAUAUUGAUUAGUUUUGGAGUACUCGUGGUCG;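 also: selection with 25 µg/mL kanamycin versus none on LB agar overnight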
Conditions: 30 °C
Readout Name: self-splicing fitness (ln)

Item Sequence	self-splicing fitness (ln)
CACCAGCAAUAUUACGAAGA	-3.26
ACGCAGCAAUAUUACGGUAU	-2.67
CUCGAGCAAUAUUACGUUCU	-3.52
AUAUAGCAAUAUUACGGCCC	-0.72

The sequence listed as `ACUGAGCAAUAUUACGCUCG` has a reported self-splicing fitness (ln) of -2.59

Per the records, this sequence ( `GUCAAGCAAUAUUACGGGUA` ) has self-splicing fitness (ln) equal to -2.91

So for `GUGCAGCAAUAUUACGCUUA` , the logged self-splicing fitness (ln) turned out to be -0.938

The recorded self-splicing fitness (ln) for `UGUUAGCAAUAUUACGCCAA` is -1.32

// self-splicing fitness (ln) value for `GAAUAGCAAUAUUACGCCGA` : -1.62

---

Assay: self-splicing fitness, log relative to wild type (ln ratio); higher = more splicing; Tetrahymena group I intron in knt gene, E. coli kanamycin selection, DiMSum; sequences stand for … in CUCUCU…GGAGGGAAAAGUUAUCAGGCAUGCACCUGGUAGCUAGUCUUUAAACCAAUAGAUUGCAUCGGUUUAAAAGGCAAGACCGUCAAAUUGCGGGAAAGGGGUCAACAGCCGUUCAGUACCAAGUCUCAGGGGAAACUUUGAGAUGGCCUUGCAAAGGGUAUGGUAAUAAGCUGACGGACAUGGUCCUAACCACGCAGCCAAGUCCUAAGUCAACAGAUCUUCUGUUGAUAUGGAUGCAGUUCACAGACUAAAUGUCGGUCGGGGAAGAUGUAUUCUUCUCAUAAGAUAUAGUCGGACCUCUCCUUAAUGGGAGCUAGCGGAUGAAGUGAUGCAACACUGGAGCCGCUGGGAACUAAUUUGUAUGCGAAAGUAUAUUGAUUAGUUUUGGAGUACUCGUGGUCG
Conditions: 37 °C
Readout Name: self-splicing fitness (ln)

Data point: `GAUCAGCAAUAUUACGUGAC` ; self-splicing fitness (ln) = -1.63

The sequence identified as `CGCCAGCAAUAUUACGGAAA` registered its self-splicing fitness (ln) at -1.93

---

Experiment: self-splicing fitness, log relative to wild type (ln ratio); higher = more splicing; Tetrahymena group I intron in knt gene, E. coli kanamycin selection, DiMSum; sequences stand for … in CUCUCU…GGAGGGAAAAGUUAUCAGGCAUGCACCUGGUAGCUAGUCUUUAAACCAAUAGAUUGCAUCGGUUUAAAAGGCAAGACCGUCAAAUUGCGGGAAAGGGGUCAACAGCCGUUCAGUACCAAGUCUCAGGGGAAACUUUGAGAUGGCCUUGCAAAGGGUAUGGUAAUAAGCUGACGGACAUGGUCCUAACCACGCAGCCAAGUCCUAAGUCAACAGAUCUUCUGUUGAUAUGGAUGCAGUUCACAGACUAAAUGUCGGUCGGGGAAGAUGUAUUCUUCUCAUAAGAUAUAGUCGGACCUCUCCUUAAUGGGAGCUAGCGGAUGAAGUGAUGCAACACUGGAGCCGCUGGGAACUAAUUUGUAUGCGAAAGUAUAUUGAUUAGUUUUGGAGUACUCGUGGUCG
Settings: 37 °C
Some sequences, each annotated with its measured self-splicing fitness (ln).
Give the value as a plain number.

Item Sequence	self-splicing fitness (ln)
GUAUAGCAAUAUUACGUGUA	-1.92
GUCCAGCAAUAUUACGUCUC	-0.134
UGUAAGCAAUAUUACGGAGA	-1.97
AUAAAGCAAUAUUACGCCCG	-0.313

Quick note, self-splicing fitness (ln) for `CAAAAGCAAUAUUACGGAGU` landed at -2.56

Reported self-splicing fitness (ln) of `AGGCAGCAAUAUUACGCAGA` : -0.754

Reported self-splicing fitness (ln) ( `GCGGAGCAAUAUUACGGUUA` ) = -0.698
